B1: DVL3 (parent)
chain: FCADNPSELPPPMERTGGIGDSRP

Variants of: B1
ASSAY_PROCEDURE: protein stability index of a GFP-peptide fusion (GPS, HEK-293T) (PSI 1-6); higher = more stable;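 also: lentivirally expressed fusions sorted by FACS into six bins by GFP to DsRed ratio, PSI derived from sequencing read proportions per bin multiplied by bin number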
RUN_CONDITIONS: c terminus: a fixed tail appended
Listed variants paired with reported protein stability index
No unit in the answer, please; the number alone is enough.

Examples with answers:
• G18K = 4.88
• P10D = 4.81
• E14N = 4.35

Input: I am curious: what protein stability index value has been reported for F1C ?
Output: 3.99

Input: Also, R15N please.
Output: 4.79

Input: Now consider N5T and answer again.
Output: 4.42

Input: M13W , same question.
Output: 2.97

# credit: the supplement of paper PMC10567573
